assay_explanation: Stability test of analytes in rat plasma (QC samples)
Type: physicochemical
run_conditions: middle concentration, room temperature for 4 h
Consider the following compounds; for each one, report its Short-Term Stability RE.
Output should be the measured figure followed by the unit it is expressed in.

Check the records and state Short-Term Stability RE for CC1(C)[C@@H](O[C@H]2O[C@H](C(=O)O)[C@@H](O)[C@H](O)[C@H]2O[C@@H]2O[C@H](C(=O)O)[C@@H](O)[C@H](O)[C@H]2O)CC[C@]2(C)[C@H]3C(=O)C=C4[C@@H]5C[C@@](C)(C(=O)O)CC[C@]5(C)CC[C@@]4(C)[C@]3(C)CC[C@@H]12 [GL, glycyrrhizin]
10.68%

Check the records and state Short-Term Stability RE for COc1cc2cc(Oc3ccc4ccc(=O)oc4c3)c(=O)oc2cc1O [DR, daphnoretin]
−13.99%

Check the records and state Short-Term Stability RE for O=C(/C=C/c1ccc(O[C@@H]2O[C@H](CO)[C@@H](O)[C@H](O)[C@H]2O)cc1)c1ccc(O)cc1O [ILQ, isoliquiritin]
12.35%

Check the records and state Short-Term Stability RE for CC1(C)[C@@H](O)CC[C@]2(C)[C@H]3C(=O)C=C4[C@@H]5C[C@@](C)(C(=O)O)CC[C@]5(C)CC[C@@]4(C)[C@]3(C)CC[C@@H]12 [GA, glycyrrhetinic acid]
−3.38%

Check the records and state Short-Term Stability RE for O=c1ccc2ccc(O)c(O)c2o1 [DPH, daphnetin]
−12.68%

Check the records and state Short-Term Stability RE for O=C1C[C@@H](c2ccc(O)cc2)Oc2cc(O)ccc21 [LG, liquiritigenin]
11.16%

Check the records and state Short-Term Stability RE for O=c1ccc2ccc(O)cc2o1 [HDC, 7-hydroxycoumarin]
−5.72%

Check the records and state Short-Term Stability RE for O=C(/C=C/c1ccc(O)cc1)c1ccc(O)cc1O [ILG, isoliquiritigenin]
11.76%

Check the records and state Short-Term Stability RE for O=C1C[C@@H](c2ccc(O[C@@H]3O[C@H](CO)[C@@H](O)[C@H](O)[C@H]3O)cc2)Oc2cc(O)ccc21 [LQ, liquiritin]
0.14%
